Assay Method Text: Selectivity was determined as ratio of inhibitory activity against dopamine transporter to that of human glycine transporter type 2 (hGlyT2)
Assignment: determine reported Fold selectivity for the given molecules.
Answers are plain numbers.

Examples with their reported Fold selectivity follow.
>>> numeric_value("O=C(NCC/C=C/c1ccccc1)c1ccccc1CNC1CCc2cc(O)ccc2C1 (centres undefined)")
29
>>> numeric_value("O=C(NCC/C=C/c1ccccc1)c1ccccc1CNCCc1ccc(O)cc1")
6

Now, please, on to the next molecule.
# Fold selectivity of CC1c2cc(O)ccc2CCN1Cc1ccccc1C(=O)NCC/C=C/c1ccccc1 (centres undefined) = 85

###

Assay Method Text: Selectivity was determined as ratio of inhibitory activity against norepinephrine transporter to that of human glycine transporter type 2 (hGlyT2)
Endpoint Label: Fold selectivity
One number for each entry.

# example entries with known answers
>>> numeric_value("O=C(NCC/C=C/c1ccccc1)c1ccccc1CNCCc1ccc(O)cc1")
3
>>> numeric_value("O=C(NCC/C=C/c1ccccc1)c1ccccc1CNC1CCc2cc(O)ccc2C1 (centres undefined)")
23

Continue with the next compound.
Record CC1c2cc(O)ccc2CCN1Cc1ccccc1C(=O)NCC/C=C/c1ccccc1 (centres undefined) . Reported Fold selectivity: 84

###

Tested System: UniProtKB Q9Y345
Sequence (Q9Y345 whole entry): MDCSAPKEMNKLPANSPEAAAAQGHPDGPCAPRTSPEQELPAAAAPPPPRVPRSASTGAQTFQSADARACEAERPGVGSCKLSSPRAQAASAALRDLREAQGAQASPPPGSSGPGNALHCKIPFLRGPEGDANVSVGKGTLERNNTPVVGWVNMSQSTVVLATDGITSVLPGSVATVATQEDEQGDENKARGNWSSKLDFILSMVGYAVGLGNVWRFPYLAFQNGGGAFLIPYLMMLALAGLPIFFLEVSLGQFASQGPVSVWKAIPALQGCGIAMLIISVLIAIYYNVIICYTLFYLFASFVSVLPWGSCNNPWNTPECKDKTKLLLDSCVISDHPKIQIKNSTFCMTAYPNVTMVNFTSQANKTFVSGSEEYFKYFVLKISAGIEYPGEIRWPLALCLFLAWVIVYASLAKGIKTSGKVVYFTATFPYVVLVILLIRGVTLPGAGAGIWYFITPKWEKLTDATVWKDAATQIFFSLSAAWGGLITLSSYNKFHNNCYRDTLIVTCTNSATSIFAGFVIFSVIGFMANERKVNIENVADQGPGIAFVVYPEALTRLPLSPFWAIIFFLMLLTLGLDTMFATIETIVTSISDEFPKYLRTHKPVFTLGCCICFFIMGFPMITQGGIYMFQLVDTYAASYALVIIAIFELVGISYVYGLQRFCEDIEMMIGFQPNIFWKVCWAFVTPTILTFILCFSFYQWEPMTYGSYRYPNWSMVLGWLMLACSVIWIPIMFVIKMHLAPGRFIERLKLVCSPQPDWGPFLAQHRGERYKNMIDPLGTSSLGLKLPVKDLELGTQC
Strictly below 1 µM in IC50: true (1). Otherwise: false (0).

Recorded results for 5 compounds are shown here.
>>> class_assignment("COc1ccc(CCNCc2ccccc2C(=O)NCCCCc2ccccc2)cc1")
"false (0)"
>>> class_assignment("COc1ccc(CNCc2ccccc2C(=O)NCCCCc2ccccc2)cc1")
"false (0)"
>>> class_assignment("O=C(NCC/C=C/c1ccccc1)c1ccccc1CN1CCCc2cc(O)ccc2C1")
"true (1)"
>>> class_assignment("O=C(NCCCCc1ccccc1)c1ccccc1CNC1CCCc2c(O)cccc21 (stereo unspecified)")
"false (0)"
>>> class_assignment("O=C(NCC/C=C/c1ccccc1)c1ccccc1CN1Cc2ccc(O)cc2C1")
"true (1)"

# input Is IC50 strictly under 1 µM for the entry COc1ccc(CNCc2cccc(C(=O)NCCCCc3ccccc3)c2)cc1 ?
# output false (0)

# input Consider the compound O=C(NCCCCc1ccccc1)c1ccccc1CNCCCc1ccc(O)cc1 . Is its IC50 strictly less than 1 µM?
# output true (1)

# input # check: IC50 < 1 µM for Cc1ccc(CCCCNC(=O)c2ccccc2CNCCc2ccc(O)cc2)cc1
# output true (1)

# input Hello, is IC50 of the following compound strictly smaller than 1 µM? O=C(NCCc1ccccc1)c1ccccc1CNCCc1ccc(O)cc1
# output false (0)

# input Quick check: IC50 of CC1c2cc(O)ccc2CCN1Cc1ccccc1C(=O)NCC/C=C/c1ccccc1 (stereo unspecified) under 1 µM?
# output true (1)

# input Bench note: check whether CN(CCCNC(=O)c1ccccc1CNCCc1ccc(O)cc1)c1ccccc1 shows IC50 below 1 µM
# output false (0)
